Biological target: Son of sevenless homolog 1 (Homo sapiens, UniProt Q07889)
Sequence (Q07889 whole entry, looked up, stated change not applied): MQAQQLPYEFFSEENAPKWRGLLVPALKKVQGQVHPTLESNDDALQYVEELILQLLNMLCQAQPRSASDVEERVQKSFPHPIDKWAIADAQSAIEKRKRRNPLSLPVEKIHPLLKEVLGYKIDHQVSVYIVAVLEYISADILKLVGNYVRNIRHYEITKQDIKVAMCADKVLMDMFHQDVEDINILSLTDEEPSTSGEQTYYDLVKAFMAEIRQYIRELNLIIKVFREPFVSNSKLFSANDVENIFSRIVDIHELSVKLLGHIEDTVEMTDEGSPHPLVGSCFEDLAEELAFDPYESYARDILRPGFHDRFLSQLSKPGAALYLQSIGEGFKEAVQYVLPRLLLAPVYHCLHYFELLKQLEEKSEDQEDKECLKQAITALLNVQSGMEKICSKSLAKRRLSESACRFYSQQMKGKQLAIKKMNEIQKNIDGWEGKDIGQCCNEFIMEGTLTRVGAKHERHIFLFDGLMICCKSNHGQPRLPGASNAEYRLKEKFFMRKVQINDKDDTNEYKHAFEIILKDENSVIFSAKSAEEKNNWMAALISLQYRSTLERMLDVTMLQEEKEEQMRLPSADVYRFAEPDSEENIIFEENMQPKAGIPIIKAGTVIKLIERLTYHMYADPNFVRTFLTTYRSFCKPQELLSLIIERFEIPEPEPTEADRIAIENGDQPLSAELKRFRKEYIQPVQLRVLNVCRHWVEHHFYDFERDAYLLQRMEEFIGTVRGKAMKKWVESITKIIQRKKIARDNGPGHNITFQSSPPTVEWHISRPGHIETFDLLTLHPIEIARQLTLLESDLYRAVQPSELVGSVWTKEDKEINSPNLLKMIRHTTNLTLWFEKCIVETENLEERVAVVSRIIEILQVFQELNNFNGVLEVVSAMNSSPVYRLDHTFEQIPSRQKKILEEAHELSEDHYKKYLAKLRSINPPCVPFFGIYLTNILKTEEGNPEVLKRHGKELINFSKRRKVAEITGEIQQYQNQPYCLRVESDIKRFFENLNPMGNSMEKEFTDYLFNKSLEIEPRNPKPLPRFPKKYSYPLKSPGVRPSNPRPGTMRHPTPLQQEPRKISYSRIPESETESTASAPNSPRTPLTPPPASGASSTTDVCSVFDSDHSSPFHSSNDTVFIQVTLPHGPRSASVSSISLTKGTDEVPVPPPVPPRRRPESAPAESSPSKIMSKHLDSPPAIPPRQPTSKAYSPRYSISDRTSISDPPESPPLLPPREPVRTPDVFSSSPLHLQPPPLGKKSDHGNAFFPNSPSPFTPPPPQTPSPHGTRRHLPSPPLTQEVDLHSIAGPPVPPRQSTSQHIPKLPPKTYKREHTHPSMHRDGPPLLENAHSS
Assay: Activation of SOS1 in human NCI-H727 cells expressing KRAS G12V mutant assessed as induction of ERK1/2 T202/Y204 phosphorylation incubated for 30 mins by In-cell Western assay
Type: cell-based
pEC50: −log10 of the molar value.
recorded endpoint: pEC50

* Cc1cc2nc(N3CCNCC3)n(Cc3ccc(F)c(Cl)c3)c2cc1C | 4.54
* Cc1cc(Cn2c(N3CCNCC3)nc3ccc(Cl)cc32)cc(C)c1F | 4.67
* Cc1cc(Cn2c(N3CC4(CNC4)C3)nc3c(-c4c(C)n[nH]c4C)cc(Cl)cc32)cc(C)c1F | 4.68
* Cc1cc(Cn2c(N3CC4(CNC4)C3)nc3c(N4CCN(C)CC4)cc(Cl)cc32)cc(C)c1F | 5.00
* Cc1cc(Cn2c(N3CCNCC3)nc3c(N4CCC[C@H]4CN)cc(Cl)cc32)cc(C)c1F | 5.14
